tested on: MOLT-4 leukemia; assay: NCI tumour cell line growth inhibition, 48 h; in the data active means GI50 below about 0.43 µM; inactive means the rest
Outcomes you can answer with include only these: active, inactive

These solved cases illustrate the format of a correct answer.
{"columns": ["COMPOUND", "QUALITATIVE_LABEL"],
 "data": [
  ["Cc1c(C)c2c(c(C)c1OCC(=O)O)CC[C@@](C)(CCC[C@@H](C)CCC[C@@H](C)CCCC(C)C)O2", "inactive"],
  ["CN1CCN(CCCOc2cccc3nc(Nc4ccc(F)c(F)c4)ccc23)CC1", "inactive"],
  ["COc1ccc2nc3cccc([N+](=O)[O-])c3c(NCCNCCN(C)C)c2c1", "active"],
  ["CC12OC(C(=O)C13CCC3)C1C(=O)c3ccc4c(ccc5ccccc54)c3C(=O)C12 (stereo not given)", "inactive"]
]}

# evaluate next
Query: Recorded test call requested for O=C(CN(/C=C/C(=O)C(F)(F)F)c1ccccc1)c1ccc(Cl)cc1
Reply: inactive

---

system: A498 renal; test: NCI tumour cell line growth inhibition, 48 h
Each entry below carries its recorded log10 TGI.
Short version: log10 scale, TGI, µM.

{"columns": ["COMPOUND", "log10 TGI"],
 "data": [
  ["NCCOc1ncccc1/C=C1\\c2ccccc2-c2ccc([N+](=O)[O-])cc21", -0.24],
  ["COc1ccc2c(c1)CCc1c(CO)c(COC(=O)NC(C)C)n(C)c1-2", 1.89],
  ["CCC(=O)Nc1ccc(NCC(=O)Nc2ccc(OC)cc2)cc1", 1.94]
]}

Here is another compound to look at.
Please fill in: log10 TGI reported for COc1cc(-c2nccc3cc4c(cc23)OCO4)cc(OC)c1OC = 1.18

---

test system: MDA-MB-231 breast; assay: NCI tumour cell line growth inhibition, 48 h
VALUE_KIND: TGI

{"columns": ["MOLECULE", "MEASURED_ON", "TGI"],
 "data": [
  ["O=[N+]([O-])C(C(Cl)=C(Cl)Cl)=C(n1cncn1)n1cncn1", "MDA-MB-231 breast", "39.3 µM"],
  ["CCN(CC)CCN1C(=O)C(=O)N(c2cccc3ccccc23)C1=O", "MDA-MB-231 breast", "> 10 µM"],
  ["OC(COc1ccccc1)CN1CCCCC1 (stereo not drawn)", "MDA-MB-231 breast", "> 100 µM"],
  ["O=C1/C(=C/c2ccccc2)CCCc2ccccc21", "MDA-MB-231 breast", "39.1 µM"],
  ["CC(=O)O[C@H]1C(=O)[C@@]2(C)[C@H]([C@H](OC(=O)c3ccccc3)[C@]3(O)C[C@H](OC(=O)[C@H](O)[C@@H](NC(=O)c4ccc(N(C)C)cc4)c4ccccc4)C(C)=C1C3(C)C)[C@]1(OC(C)=O)CO[C@@H]1C[C@@H]2O", "MDA-MB-231 breast", "> 50 µM"]
]}

// assay MDA-MB-231 breast, entry COc1ccc(C2C3=C(COC3=O)OC(C)(C)Oc3cc4c(cc32)OCO4)cc1OC (stereo not drawn) , TGI value = > 84.1 µM

Lab entry: MDA-MB-231 breast assay, molecule CCc1nn2ncccc2c1-c1ccnc(NC2CC2)n1 , TGI = > 25 µM

So the reported TGI for CC(=O)O[C@H](C[C@H](C(C)C)N(C)C(=O)[C@@H](NC(=O)[C@H]1CCCCN1C)C(C)C)c1cccc(C(=O)N[C@@H](Cc2ccccc2)C[C@H](C)C(=O)O)n1 , on MDA-MB-231 breast, turned out to be 10.1 µM
